# Test system: HS 578T breast
# assay.remarks: NCI tumour cell line growth inhibition, 48 h
reported.metric: TGI

Problem: Item: O=C(Nc1cccc(C(=O)NCCCO)c1)/C(=C/c1ccccc1)NC(=O)c1ccccc1 Test system: HS 578T breast Read-out: TGI Value: ?
Solution: > 100 µM

Problem: Now consider N#Cc1c(N/N=C\c2ccc(Cl)cc2)nc(N)nc1N1CCOCC1 .
Solution: > 100 µM

Problem: Next compound up: CC1=CC(=O)N(n2c(Cc3ccc(Cl)cc3)n[nH]c2=O)C1=O
Solution: > 100 µM

Problem: Lookup CC(=O)Nc1cc2nc3n(c2cc1C)CCC3OC(C)=O (stereo not given)
Solution: > 100 µM

Problem: What about COc1cc(/C=C/C(=O)c2c(-c3ccc(F)cc3)nc3sc(C)nn23)cc(OC)c1OC ?
Solution: > 100 µM

Problem: Same lookup for O=C(c1ccccc1)c1nc2ccc(C(F)(F)F)cc2nc1N1CCN(c2ccccc2)CC1 , please.
Solution: > 100 µM

Problem: // repeat for COC(=O)c1ccc2c(c1)sc1nc(-c3ccc(OC)cc3)cn12 and report
Solution: > 100 µM

Problem: And what about the compound CN(C)CCOc1ccccc1NC1=C(Cl)C(=O)C(Nc2ccccc2OCCN(C)C)=C(Cl)C1=O ?
Solution: > 83.1 µM

Problem: Same again, this time with CN1CCN(Cc2nc3c(s2)CCc2sccc2-3)CC1
Solution: > 100 µM

Problem: Another compound to check: Cc1cc2c(cc1Cl)SC(NNC1=NCCN1)=NS2(=O)=O
Solution: > 10 µM

----------
Form field: log10 TGI (one value per entry).
# Tested on: MDA-MB-231 breast
# assay.remarks: NCI tumour cell line growth inhibition, 48 h
Base-10 log of TGI, unit µM.

[
  {
    "compound": "CCN(CCO)CCNc1ccc(C)c2sc3ccccc3c(=O)c12",
    "observed.result": 0.73
  },
  {
    "compound": "C=C1C(=O)C2=CC1CCC(=O)C1(C)CCC(OC(C)=O)C(C)(C)C1CC2O (stereo unspecified)",
    "observed.result": 1.26
  },
  {
    "compound": "O=S(=O)(NCCCNc1cc(-c2cn(-c3ccccc3)nc2-c2cccc(O)c2)ccn1)c1ccc(Br)cc1",
    "observed.result": 0.63
  },
  {
    "compound": "Cn1c2cn[nH]c(=O)c2c2ccc3ccccc3c21",
    "observed.result": 1.76
  },
  {
    "compound": "COc1cc(/C=C2\\N=C(c3ccccc3)N(c3nc4ccc(Sc5ccccc5)cc4[nH]3)C2=O)cc(OC)c1OC",
    "observed.result": 1.70
  },
  {
    "compound": "NC(N)=Nc1ccc(/C=C2\\C=Cc3ccccc32)cc1",
    "observed.result": 0.58
  },
  {
    "compound": "O=C1C=C(c2ccccc2)O/C1=C\\C(=O)c1ccc(Cl)cc1",
    "observed.result": 1.51
  },
  {
    "compound": "NCCSC(c1ccccc1)(c1ccccc1)c1ccccc1",
    "observed.result": 0.37
  },
  {
    "compound": "Cc1ccsc1-c1ccc2c(c1)COC2(CCCN(C)C)c1ccc(F)cc1 (stereo unspecified)",
    "observed.result": 0.78
  },
  {
    "compound": "CN(C)c1ccccc1[CH2][Ga]([Cl])[CH2]c1ccccc1N(C)C",
    "observed.result": 0.43
  }
]

Continue with the compound presented below.
Problem: Quick check: log10 TGI of CC(C)Cc1ccc(C(C)C(=O)NCc2ccc(Cn3c(=O)sn(CCCI)c3=O)cc2)cc1 (stereo unspecified) ?
Solution: 0.38

----------
# Tested on: NCI-H460 lung
Your response should consist of one outcome taken from active, inactive

[
  {
    "molecule": "Oc1ccccc1/C=N\\NC(=S)N/N=C/c1ccccc1O",
    "label.class": "inactive"
  },
  {
    "molecule": "Cc1ccccc1C(C(=O)NC1CCCCC1)N(C(=O)CNc1ccc(C#N)cc1)c1cccc(F)c1 (stereo not drawn)",
    "label.class": "inactive"
  },
  {
    "molecule": "COc1ccc(Cn2cc3c(c2-c2cc(OC)c(OC)c(OC)c2)CCc2c(CO)noc2-3)cc1",
    "label.class": "active"
  },
  {
    "molecule": "COc1cc2nc3cc([N+](=O)[O-])ccc3c(NCCNCC(C)O)c2cc1OC (stereo not drawn)",
    "label.class": "active"
  },
  {
    "molecule": "Cc1ccsc1-c1ccc2c(c1)COC2(CCCN(C)C)c1ccc(F)cc1 (stereo not drawn)",
    "label.class": "inactive"
  },
  {
    "molecule": "COC(=O)c1oc2c(C(=O)/C=C/c3ccc(OC)cc3)c(OCCN3CCOCC3)ccc2c1C",
    "label.class": "inactive"
  }
]

Problem: State the result this test recorded for O=C(c1ccccc1)c1nc2ccc(C(F)(F)F)cc2nc1N1CCN(c2ccccc2)CC1 .
Solution: inactive

Problem: Please give the result for CC/C=C\C[C@H](O)C/C=C1/C(=O)C=C[C@@H]1C/C=C\CCCCO too.
Solution: inactive

----------
# System: OVCAR-8 ovarian
# assay.remarks: NCI tumour cell line growth inhibition, 48 h; in the data active = GI50 below about 0.43 µM; inactive = the rest
Mark one answer only. Choices: true (active), false (inactive)

[
  {
    "molecule": "C[C@H]1CCC/C=C/[C@@H]2C[C@H](O)C[C@H]2[C@H](O)/C=C/C(=O)O1",
    "label.class": "true"
  },
  {
    "molecule": "CN(C)CCNC(=O)c1ccc2oc3cc4ccccc4c(=O)n3c2c1",
    "label.class": "false"
  },
  {
    "molecule": "CC(C)Cc1ccc(C(C)C(=O)NCc2ccc(Cn3c(=O)sn(CCCI)c3=O)cc2)cc1 (stereo not given)",
    "label.class": "false"
  }
]

Problem: Lab log entry: CN(C)Cc1c(C(=O)NCCOc2ccc(C(=O)NO)cc2)oc2ccccc12 — outcome as called in the assay?
Solution: true

Problem: Then COc1cc(C2CC(=O)Nc3c2c(C)nn3-c2nc3ccccc3[nH]2)cc(OC)c1O (stereo not given) ?
Solution: false

----------
# Tested on: HCC-2998 colon
# assay.remarks: NCI tumour cell line growth inhibition, 48 h
reported.metric: TGI

Below are worked cases with known answers.
[
  {
    "molecule": "NC(=O)CCSC(CC(=O)c1ccc(Cl)cc1)c1ccc(Cl)cc1 (stereo not drawn)",
    "TGI": "32.7 µM"
  },
  {
    "molecule": "O=C1/C(=C/c2ccc(O)c(O)c2)CC/C1=C\\c1ccc(O)c(O)c1",
    "TGI": "> 100 µM"
  },
  {
    "molecule": "NC(=O)c1cc(Br)ccc1NC(=O)/C=C/c1ccccc1",
    "TGI": "> 100 µM"
  },
  {
    "molecule": "CN(C)CCOc1ccccc1NC1=C(Cl)C(=O)C(Nc2ccccc2OCCN(C)C)=C(Cl)C1=O",
    "TGI": "> 21.6 µM"
  },
  {
    "molecule": "C#CCOCn1cc(C)c(=O)[nH]c1=O",
    "TGI": "> 100 µM"
  },
  {
    "molecule": "CCOC(=O)/C(=C\\NC(C)(C)CO)c1nc2ccccc2[nH]1",
    "TGI": "> 100 µM"
  },
  {
    "molecule": "CCN(CC)Cc1cc(Nc2ccnc3ccc4nn(C)nc4c23)ccc1O",
    "TGI": "26.4 µM"
  },
  {
    "molecule": "O=C1NC(=NCCc2ccccn2)S/C1=C\\c1ccc2ncccc2c1",
    "TGI": "> 25 µM"
  }
]

Problem: Fill blank: measured TGI of the molecule C/C=C(\C)C(=O)O[C@H]1C=CC(=O)O[C@H]1COC(=O)[C@H](C)O is ____.
Solution: 30 µM

Problem: Also CCOC(=O)C(NC(=O)CC)(Nc1ccc(F)cc1F)C(F)(F)F (stereo not drawn) ?
Solution: > 100 µM

Problem: COc1ccc(-c2cn(-c3cc(OC)c(OC)c(OC)c3)c(=O)[nH]2)cc1OC , same question.
Solution: > 100 µM

Problem: How about this molecule: CCC1(c2ccc(N)cc2)CCC(=O)NC1=O (stereo not drawn)
Solution: > 5000 µM

Problem: Try the molecule O=c1[nH]c(=O)n(CCOc2ccc(Cl)cc2)cc1Nc1ccccc1
Solution: > 100 µM

----------
# Test system: MCF7 breast
# assay.remarks: NCI tumour cell line growth inhibition, 48 h
reported.metric: TGI (µM)
Just the number please, in µM, no unit attached.

Please review the entries below; each comes with its answer.
[
  {
    "molecule": "O=[N+]([O-])c1oc2ccc3ccccc3c2c1CCO",
    "TGI [µM]": 29.5
  },
  {
    "molecule": "CC1(C)CCCCCCCCCC2CC2CCC(C)(C)C1=O (stereo not drawn)",
    "TGI [µM]": 30
  },
  {
    "molecule": "CCNCCNc1cc(-c2ccc(C(F)(F)F)cc2)c(C#N)c2nc3cc(Cl)c(Cl)cc3n12",
    "TGI [µM]": 0.352
  }
]

Problem: Can you share its TGI? I mean this molecule: COc1cc(/C=C2\N=C(c3ccccc3)N(c3nc4ccc(Sc5ccccc5)cc4[nH]3)C2=O)cc(OC)c1OC
Solution: 45.9

Problem: Try the molecule COc1cc2nc3cc([N+](=O)[O-])ccc3c(NCCNCC(C)O)c2cc1OC (stereo not drawn)
Solution: 1.57

Problem: What do you get for CCOC(=O)C12CC(C)=C(C)CC1CCCc1ccccc12 (stereo not drawn) ?
Solution: 35.2

Problem: Entry to check: CCCC[C@H]1C(=O)O[C@H](C)[C@H](NC(=O)c2cccc(NC=O)c2OC)C(=O)O[C@@H](C)[C@@H]1OC(=O)CC(C)C (tested in a mixture with another compound)
Solution: 28.1

Problem: // query: C/C(=C\C(=N\NC(=N)N)c1ccccc1)c1ccccc1
Solution: 1.58

Problem: And what about the molecule NCCSC(c1ccccc1)(c1ccccc1)c1ccccc1 ?
Solution: 1.78
